target: Phosphatidylinositol 4,5-bisphosphate 3-kinase catalytic subunit alpha isoform (Homo sapiens, UniProt P42336); assay: Inhibition of PI3Kalpha (unknown origin) by kinase profiling assay
Sequence (P42336 whole entry, canonical isoform): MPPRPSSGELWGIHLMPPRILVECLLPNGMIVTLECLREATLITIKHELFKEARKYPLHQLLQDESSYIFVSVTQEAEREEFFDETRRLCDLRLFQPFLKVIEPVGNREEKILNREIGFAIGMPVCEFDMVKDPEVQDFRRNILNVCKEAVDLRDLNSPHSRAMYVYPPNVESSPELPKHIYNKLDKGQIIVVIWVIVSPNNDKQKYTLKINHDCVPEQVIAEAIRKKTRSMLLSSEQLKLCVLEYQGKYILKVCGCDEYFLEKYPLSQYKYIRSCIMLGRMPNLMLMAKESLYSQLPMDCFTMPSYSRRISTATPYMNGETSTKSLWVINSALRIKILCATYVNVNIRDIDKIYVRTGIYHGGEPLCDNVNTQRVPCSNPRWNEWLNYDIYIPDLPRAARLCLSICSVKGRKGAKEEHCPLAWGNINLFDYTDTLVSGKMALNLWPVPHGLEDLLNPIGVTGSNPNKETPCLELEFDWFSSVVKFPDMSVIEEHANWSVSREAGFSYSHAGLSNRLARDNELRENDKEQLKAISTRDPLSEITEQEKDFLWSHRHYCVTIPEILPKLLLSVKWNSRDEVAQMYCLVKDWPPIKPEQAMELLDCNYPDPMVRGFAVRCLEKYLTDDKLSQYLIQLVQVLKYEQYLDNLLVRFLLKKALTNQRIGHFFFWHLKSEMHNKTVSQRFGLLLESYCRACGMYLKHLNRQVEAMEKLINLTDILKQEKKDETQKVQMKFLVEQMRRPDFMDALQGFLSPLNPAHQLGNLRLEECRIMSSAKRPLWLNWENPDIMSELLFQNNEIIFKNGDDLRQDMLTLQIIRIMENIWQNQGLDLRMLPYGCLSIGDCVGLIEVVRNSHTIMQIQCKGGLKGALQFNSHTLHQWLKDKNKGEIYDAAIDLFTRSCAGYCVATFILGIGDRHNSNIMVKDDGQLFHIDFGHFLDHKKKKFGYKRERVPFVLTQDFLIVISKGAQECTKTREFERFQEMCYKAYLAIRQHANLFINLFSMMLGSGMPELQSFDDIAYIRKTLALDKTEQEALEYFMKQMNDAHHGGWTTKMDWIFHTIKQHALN
quantity_measured: IC50 (nM)
Numbers only here, please. The scale is nM.

1. O=C1NC(=O)C(Cc2ccc3nccc(-c4ccncc4)c3c2)S1 (configuration not stated): 2

// below: IC50 requested for another compound
Given O=S(=O)(Nc1cncc(-c2ccc3nccc(-c4ccncc4)c3c2)c1)c1ccccc1F , state its recorded IC50.
0.1

* * *

experiment: Oral bioavailability in rat at 5 mg/kg; format: ADME, organism-based; settings: in vivo
quantity_measured: bioavailability

GET /values?readout=bioavailability&item= O=c1nc(OC[C@@H]2COCCO2)cc2n1CCc1cc(C#CC3CC3)ccc1-2 [GLPG-1205]
> 100%
